tested on: P. aeruginosa ATCC 27853; assay type: cell-based, Pseudomonas aeruginosa; conditions: ATCC 27853
Non-standard residues stand in square brackets, D forms with d. Residues, ends and D or L forms follow the SMILES beside them. Chg = N[C@H](C(=O)O)C1CCCCC1; dDab = NCC[C@@H](N)C(=O)O; Dab = NCC[C@H](N)C(=O)O

| molecule | system_name | MIC P. aeruginosa ATCC 27853, µg/mL |
| --- | --- | --- |
| C[C@@H]1NC(=O)[C@H](CCN)NC(=O)[C@H](CCN)NC(=O)[C@H](Cc2c[nH]c3ccccc23)NC(=O)[C@H](CCN)NC(=O)[C@H](CCN)NC(=O)[C@H](CCCCN)NC(=O)[C@H](CCN)NC(=O)[C@H](C2CCCCC2)NC(=O)[C@H](Cc2c[nH]c3ccccc23)NC(=O)[C@H]([C@@H](C)O)NC(=O)[C@@H]2CCCN2C(=O)[C@H]2CCCN2C(=O)[C@H](CCN)NC1=O [Example 33] (cyclo(TW[Chg][Dab]K[Dab][Dab]W[Dab][Dab]A[Dab][dP]P)) | P. aeruginosa ATCC 27853 | 0.05 |
| CC[C@H](C)[C@@H]1NC(=O)[C@H](Cc2ccc(O)cc2)NC(=O)[C@H](CC(=O)O)NC(=O)[C@@H]2CCCN2C(=O)[C@H]2CCCN2C(=O)[C@H](CCN)NC(=O)[C@H](C)NC(=O)[C@H](CCN)NC(=O)[C@H](CCN)NC(=O)[C@H](Cc2c[nH]c3ccccc23)NC(=O)[C@H](CCN)NC(=O)[C@@H](CCN)NC(=O)[C@H](CCCCN)NC(=O)[C@H](CCN)NC1=O [Example 42] (cyclo(DYI[Dab]K[dDab][Dab]W[Dab][Dab]A[Dab][dP]P)) | P. aeruginosa ATCC 27853 | 0.25 |
| CC[C@H](C)[C@@H]1NC(=O)[C@H](Cc2c[nH]c3ccccc23)NC(=O)[C@H]([C@@H](C)O)NC(=O)[C@@H]2CCCN2C(=O)[C@H]2CCCN2C(=O)[C@H](CCN)NC(=O)[C@@H]2CCCN2C(=O)[C@H](CCN)NC(=O)[C@H](CCN)NC(=O)[C@H](Cc2c[nH]c3ccccc23)NC(=O)[C@H](CCN)NC(=O)[C@H](CCN)NC(=O)[C@H](CCCCN)NC(=O)[C@H](CCN)NC1=O [Example 17] (cyclo(TWI[Dab]K[Dab][Dab]W[Dab][Dab]P[Dab][dP]P)) | P. aeruginosa ATCC 27853 | 0.75 |
| CC[C@H](C)[C@@H]1NC(=O)[C@H](Cc2c[nH]c3ccccc23)NC(=O)[C@H]([C@@H](C)O)NC(=O)[C@@H]2CCCN2C(=O)[C@H]2CCCN2C(=O)[C@H](CCN)NC(=O)[C@H](CC(=O)O)NC(=O)[C@H](CCN)NC(=O)[C@H](CCN)NC(=O)[C@H](Cc2c[nH]c3ccccc23)NC(=O)[C@H](CCN)NC(=O)[C@H](CCN)NC(=O)[C@H](CCCCN)NC(=O)[C@H](CCN)NC1=O [Example 14] (cyclo(TWI[Dab]K[Dab][Dab]W[Dab][Dab]D[Dab][dP]P)) | P. aeruginosa ATCC 27853 | 0.21 |
| CC[C@H](C)[C@@H]1NC(=O)[C@H](Cc2c[nH]c3ccccc23)NC(=O)[C@H](C)NC(=O)[C@@H]2CCCN2C(=O)[C@H]2CCCN2C(=O)[C@H](CCN)NC(=O)[C@H](C)NC(=O)[C@H](CCN)NC(=O)[C@H](CCN)NC(=O)[C@H](Cc2c[nH]c3ccccc23)NC(=O)[C@H](CCN)NC(=O)[C@H](CCN)NC(=O)[C@H](CCCCN)NC(=O)[C@H](CCN)NC1=O [Example 22] (cyclo(AWI[Dab]K[Dab][Dab]W[Dab][Dab]A[Dab][dP]P)) | P. aeruginosa ATCC 27853 | 0.02 |
| CC[C@H](C)[C@@H]1NC(=O)[C@H](Cc2c[nH]c3ccccc23)NC(=O)[C@H]([C@@H](C)O)NC(=O)[C@@H]2CCCN2C(=O)[C@H]2CCCN2C(=O)[C@H](CCN)NC(=O)[C@H](C)NC(=O)[C@H](CCN)NC(=O)[C@H](CCN)NC(=O)[C@H](Cc2ccc(O)cc2)NC(=O)[C@H](CCN)NC(=O)[C@H](CCN)NC(=O)[C@H](CCCCN)NC(=O)[C@H](CCN)NC1=O [Example 20] (cyclo(TWI[Dab]K[Dab][Dab]Y[Dab][Dab]A[Dab][dP]P)) | P. aeruginosa ATCC 27853 | 0.21 |

These data points were gathered from patent US9521846B2.
